Attribution: patent US12150995B2

Measured DC50 values are reported for all entries that follow.
Molecular target: IRAK4 (Homo sapiens, UniProt Q9NWZ3)
Construct: endogenous in cells; host or cells: OCI-LY10
Sequence (Q9NWZ3 1-460): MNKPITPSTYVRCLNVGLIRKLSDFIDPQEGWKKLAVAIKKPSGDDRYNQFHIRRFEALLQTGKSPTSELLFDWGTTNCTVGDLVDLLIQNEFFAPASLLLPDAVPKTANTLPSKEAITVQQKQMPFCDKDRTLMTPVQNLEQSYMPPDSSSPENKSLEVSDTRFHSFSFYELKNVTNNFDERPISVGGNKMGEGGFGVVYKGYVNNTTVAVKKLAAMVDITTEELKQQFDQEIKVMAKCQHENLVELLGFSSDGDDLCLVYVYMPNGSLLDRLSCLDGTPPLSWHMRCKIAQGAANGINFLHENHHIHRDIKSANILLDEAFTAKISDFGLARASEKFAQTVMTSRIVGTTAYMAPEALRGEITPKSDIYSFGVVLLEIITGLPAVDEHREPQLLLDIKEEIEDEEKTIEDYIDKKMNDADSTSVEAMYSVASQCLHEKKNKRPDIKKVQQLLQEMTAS
Assay: IRAK4 MSD Degradation in OCI-LY10
Format: cell-based
Conditions: OCI-LY10 cells, Meso Scale Discovery, incubated 4 to 24 hours

Below are worked cases with known answers.
* COc1cc2nn([C@H]3CC[C@H](CN4CCN(c5ccc6c(N7CCC(=O)NC7=O)cncc6c5OC)CC4)CC3)cc2cc1NC(=O)c1cccc(C(F)(F)F)n1 | 10 to 50 nM
* COc1cc2nn([C@H]3CC[C@H](CN4CCN(c5cccc6c(N7CCC(=O)N(C)C7=O)cncc56)CC4)CC3)cc2cc1NC(=O)c1cccc(C(F)(F)F)n1 | > 200 nM
* CN(C[C@H]1CC[C@H](c2cc3cc(NC(=O)c4cccc(C(F)(F)F)n4)c(F)cc3n2C)CC1)C1CCN(c2cccc3c2n(C)c(=O)n3C2CCC(=O)NC2=O)CC1 (some centres unmarked) | > 200 nM
* CC(C)(O)c1cc2nc([C@H]3CC[C@H](CN4CCN(CCNc5cccc6c5C(=O)N(C5CCC(=O)NC5=O)C6=O)CC4)CC3)sc2cc1NC(=O)c1cncc(C#N)c1 (some centres unmarked) | 100 to 200 nM
* CC(C)Nc1c(C(=O)N[C@H]2CC[C@H](CN3CCN(c4cccc5c4n(C)c(=O)n5C4CCC(=O)NC4=O)CC3)CC2)cnc2sc(-c3cncs3)cc12 (some centres unmarked) | < 10 nM

Record Cn1c(=O)n(C2CCC(=O)NC2=O)c2cccc(N3CCN(C[C@H]4CC[C@H](n5cc6cc7nc(-c8cccc(C(F)(F)F)n8)oc(=O)c7cc6n5)CC4)CC3)c21 (some centres unmarked) : what is its DC50 with IRAK4 (Homo sapiens, UniProt Q9NWZ3)?
10 to 50 nM

Record CC(C)(O)c1cc2nc([C@H]3CC[C@H](C(=O)N4CCN(CCCNc5cccc6c5C(=O)N(C5CCC(=O)NC5=O)C6=O)CC4)CC3)sc2cc1NC(=O)c1cccc(C#N)n1 (some centres unmarked) : what is its DC50 with IRAK4 (Homo sapiens, UniProt Q9NWZ3)?
10 to 50 nM

Record Cn1c(=O)n(C2CCC(=O)NC2=O)c2cccc(C3CCN(C[C@H]4CC[C@H](n5cc6cc(NC(=O)c7cncc(C#N)c7)c(OC(F)(F)F)cc6n5)CC4)CC3)c21 (some centres unmarked) : what is its DC50 with IRAK4 (Homo sapiens, UniProt Q9NWZ3)?
> 200 nM
